Measured EC50 accompanies every entry in the list below.
TARGET OF ASSAY: Sphingosine 1-phosphate receptor 1 (Homo sapiens)
Sequence (P21453 whole entry): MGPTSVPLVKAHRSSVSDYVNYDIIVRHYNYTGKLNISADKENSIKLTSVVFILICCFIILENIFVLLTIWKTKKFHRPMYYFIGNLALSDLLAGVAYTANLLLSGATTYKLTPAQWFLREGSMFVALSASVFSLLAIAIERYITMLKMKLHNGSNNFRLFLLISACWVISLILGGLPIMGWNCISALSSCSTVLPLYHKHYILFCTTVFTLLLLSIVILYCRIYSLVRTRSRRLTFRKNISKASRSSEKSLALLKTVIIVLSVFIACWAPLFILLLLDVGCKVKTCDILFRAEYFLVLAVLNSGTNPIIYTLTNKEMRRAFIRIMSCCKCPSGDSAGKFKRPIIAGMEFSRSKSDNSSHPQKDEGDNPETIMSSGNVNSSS
RUN DESCRIPTION: Agonist activity at human S1P1 receptor expressed in human U2OS cells assessed as beta-arrestin-mediated receptor internalization by beta-lactamase reporter assay
Assay type: functional, cell-based
MEASUREMENT PARAMETERS: read-out: pEC50 (converted)

# SMILES STRING, UNITS OF MEASURE, RELATION SYMBOL, EC50
records = [
    ("CCCCN(C(=O)c1ccc(C(F)(F)F)cc1)c1nnc(-c2cccc3[nH]ccc23)s1", "nM", "=", 1.26),
    ("CN(C(=O)c1ccc(Cl)cc1)c1nnc(-c2cccc(F)c2)s1", "nM", ">", 10000),
    ("CCCCN(C(=O)c1ccccc1)c1nnc(-c2cccnc2)s1", "nM", "=", 1000),
    ("CCCCN(C(=O)Nc1ccc(Cl)cc1)c1nnc(-c2cccnc2)s1", "nM", ">", 10000),
    ("CCCCN(C(=O)c1ccccc1Cl)c1nnc(-c2cccnc2)s1", "nM", "=", 501),
    ("CCCCN(C(=O)c1ccc(C(F)(F)F)cc1)c1nnc(-c2cccc3ccoc23)s1", "nM", "=", 251),
    ("CCCCN(C(=O)c1ccc(Cl)cc1)c1nnc(-c2cccnc2)s1", "nM", "=", 251),
]

From: ChEMBL document CHEMBL2010738
